Experiment: Drug metabolism in Cynomolgus monkey plasma assessed as parent compound remaining pretreated with 4-(4-fluorophenyl)-5-((1-methyl-1H-pyrazol-3-yl)methoxy)picolinamide at 1 mg/kg, iv for 20 mins before administration of tracer injection measured after 30 mins by CT scan
Format: ADME, organism-based, Macaca fascicularis
Settings: read-out: Stability
QUANTITY_NAME: remaining at 20 min (%)
Write it as a number; the unit % goes unstated.

Query: What does the data say about its remaining at 20 min? Entry: CC1(C)CCc2c(-c3ccc(O[11CH3])cc3F)cc(C(N)=O)nc2O1
Response: 53

* * *

Assay: Drug metabolism in Cynomolgus monkey plasma assessed as parent compound remaining pretreated with 4-(4-fluorophenyl)-5-((1-methyl-1H-pyrazol-3-yl)methoxy)picolinamide at 1 mg/kg, iv for 20 mins before administration of tracer injection measured after 120 mins by CT scan
Assay type: ADME, organism-based, Macaca fascicularis
Conditions: read-out: Stability
QUANTITY_NAME: remaining at 20 min (%)
Write it as a number; the unit % goes unstated.

Query: What does the data say about its remaining at 20 min? Entry: CC1(C)CCc2c(-c3ccc(O[11CH3])cc3F)cc(C(N)=O)nc2O1
Response: 24.8

* * *

Experiment: Drug uptake in Sprague-Dawley rat brain cerebellum mGlr2 rich region assessed as decrease in drug accumulation pretreated with 4-(8-bromo-2-oxo-2,3-dihydro-1H-benzo[b][1,4]diazepin-4-yl)picolinonitrile at 0.2 mg/kg, iv for 1 min before administration of tracer injection by CT scan
Assay type: ADME, organism-based
Conditions: in vivo
QUANTITY_NAME: Drug uptake (%)
Write it as a number; the unit % goes unstated.

Query: What does the data say about its Drug uptake? Entry: CC1(C)CCc2c(-c3ccc(O[11CH3])cc3F)cc(C(N)=O)nc2O1
Response: 39.6
